- Subject Of Test: Brd4(BD2) (Homo sapiens, UniProt O60885)
- Construct: GST tagged bromodomain proteins were purchased from BPS Bioscience
- Assay Procedure: HTRF BET selectivity profile, Brd4(BD2)
Endpoint Label: IC50 (µM)
Response body: numeric value in µM, unit text excluded.

Below are worked cases with known answers.
INSERT INTO measurements (compound, endpoint_label, value_unit, quantitative_readout) VALUES
  ('CCn1c(CSc2nc3nc(C)cc(C)n3n2)nc2c1c(=O)[nH]c(=O)n2Cc1ccc(CNS(=O)(=O)c2ccc3c(c2)CCCC(=O)N3)cc1 [Compound 32b]', 'IC50', 'µM', 28),
  ('CCn1cnc2c1c(=O)[nH]c(=O)n2Cc1ccc(CNS(=O)(=O)c2ccn(-c3ccccc3)n2)cc1 [Compound 24b]', 'IC50', 'µM', 5.85),
  ('CCn1cnc2c1c(=O)[nH]c(=O)n2Cc1ccc(CNS(=O)(=O)c2ccc(N3CCOCC3)cc2)cc1 [Compound 45a]', 'IC50', 'µM', 2.67),
  ('CCn1cnc2c1c(=O)[nH]c(=O)n2Cc1ccc(CNS(=O)(=O)c2ccc(OCc3ccccc3)cc2)cc1 [Compound 31a]', 'IC50', 'µM', 9.71),
  ('CCn1cnc2c1c(=O)[nH]c(=O)n2Cc1ccc(CNS(=O)(=O)c2ccc(Oc3ccccc3)cc2)cc1 [Compound 30c]', 'IC50', 'µM', 4.59);

Give the measured IC50 of CCn1cnc2c1c(=O)[nH]c(=O)n2Cc1ccc(CNS(=O)(=O)c2ccc(-c3ccccc3)cc2)cc1 [Compound 29b] .
17.7

Give the measured IC50 of CCn1cnc2c1c(=O)[nH]c(=O)n2Cc1ccc(CNS(=O)(=O)c2ccc(OC3CCOCC3)c(F)c2)cc1 [Compound 43c] .
2.31

Give the measured IC50 of CCn1cnc2c1c(=O)[nH]c(=O)n2Cc1ccc(CNS(=O)(=O)c2ccc3c(c2)CCCC(=O)N3)c2ccccc12 [Compound 31c] .
4.21

Give the measured IC50 of CCn1cnc2c1c(=O)[nH]c(=O)n2Cc1ccc(CNS(=O)(=O)c2ccc3scnc3c2)cc1 [Compound 25c] .
21.2

Give the measured IC50 of CCn1cnc2c1c(=O)[nH]c(=O)n2Cc1ccc(CNS(=O)(=O)c2ccc(OC3CCOCC3)cc2)cc1 [Compound 43b] .
3.3

Give the measured IC50 of CCn1cnc2c1c(=O)[nH]c(=O)n2Cc1ccc(CNS(=O)(=O)c2ccc(OC3CCCCC3)cc2)cc1 [Compound 43a] .
4.39

Give the measured IC50 of CCn1cnc2c1c(=O)[nH]c(=O)n2Cc1ccc(CNS(=O)(=O)c2ccc(C(=O)N3CCOCC3)cc2)cc1 [Compound 44b] .
4.24

Give the measured IC50 of CCn1cnc2c1c(=O)[nH]c(=O)n2Cc1ccc(CNS(=O)(=O)c2cccc(-c3ccccc3)c2)cc1 [Compound 29c] .
12.2

Give the measured IC50 of O=C1CCCc2cc(S(=O)(=O)C3CCC(C(=O)NCCc4ccccn4)CC3)ccc2N1 (stereo not shown) .
20.8

Give the measured IC50 of CCn1cnc2c1c(=O)[nH]c(=O)n2Cc1ccc(CNS(=O)(=O)c2ccc(-c3cc(C)n[nH]3)s2)cc1 [Compound 25a] .
4.05

Give the measured IC50 of CCn1cnc2c1c(=O)[nH]c(=O)n2Cc1ccc(CNS(=O)(=O)c2ccc3c(c2)CCCC(=O)N3)cc1 [Compound 27c] .
2.78

Give the measured IC50 of CCn1cnc2c1c(=O)[nH]c(=O)n2Cc1ccc(CNS(=O)(=O)c2cc3ccccc3s2)cc1 [Compound 25b] .
12.8

Give the measured IC50 of CCn1cnc2c1c(=O)[nH]c(=O)n2Cc1ccc(CNS(=O)(=O)c2ccc3c(c2)CCC(=O)N3)cc1 [Compound 27b] .
8.31

Give the measured IC50 of CCCCc1c(C)nc2nc(SCc3nc4c(c(=O)[nH]c(=O)n4Cc4ccc(CNS(=O)(=O)c5ccc6c(c5)CCCC(=O)N6)cc4)n3CC)nn2c1C [Compound 32c] .
9.15
